Cited source for all entries: patent US20030087887A1

- Tested on: Asbergillus niger ZM35
- METHOD_DESCRIPTION: MIC, agar diffusion, Asbergillus niger ZM35
- Type: cell-based
- MEASUREMENT_PARAMETERS: Aspergillus niger, read-out: in vitro activities MIC
Overview of recorded MIC for various compounds
Write the number in µg/mL without appending the unit.

Here is how some compounds turned out for MIC.
>  <COMPOUND>
CC(=O)O[C@H]1C[C@@]2(C)C(C[C@@H](O)C3[C@@]4(C)CC[C@@H](O)[C@@H](C)C4CC[C@@]32C)[C@@H]1[C@H](CCCC(C)C)C(=O)NCCCNCCCCNCCCN (some centres unmarked) [Compound 125]

>  <SUBJECT_OF_TEST>
Asbergillus niger ZM35

>  <UNIT>
µg/mL

>  <READOUT_VALUE>
16

$$$$
>  <COMPOUND>
CC(=O)O[C@H]1C[C@@]2(C)C(C[C@@H](O)C3[C@@]4(C)CC[C@@H](O)[C@@H](C)C4CC[C@@]32C)[C@@H]1[C@H](CCCC(C)C)C(=O)NCCCCNCCCN (some centres unmarked) [Compound 121]

>  <SUBJECT_OF_TEST>
Asbergillus niger ZM35

>  <UNIT>
µg/mL

>  <READOUT_VALUE>
64

$$$$

Okay, now this compound:
input: Return MIC measured with Asbergillus niger ZM35 given this compound: CC(=O)O[C@H]1C[C@@]2(C)C(CCC3[C@@]4(C)CC[C@@H](O)[C@@H](C)C4CC[C@@]32C)[C@@H]1[C@H](CCCC(C)C)C(=O)NCCNCCCNCCN (some centres unmarked) [Compound 133]
output: 32
